Hello, the source for this data is patent US8932597B2, in case you need it.

# Tested on: anti-M2 human monoclonal antibody Z3G1
# Format: binding
Give measured Signal (peptides that bind to Z3G1) for each item. Keep answers brief.
Write no unit; give the number alone.

Lab note: record Signal (peptides that bind to Z3G1) of 422 (SLLTEVETPIRNEWGCRCNDSFD; epitope peptide) [compound 422] tested on anti-M2 human monoclonal antibody Z3G1.
2492

Name the recorded Signal (peptides that bind to Z3G1) of 1393 (SLLCEVETCIRNEWG; epitope peptide) [compound 1393] , assay system anti-M2 human monoclonal antibody Z3G1.
2531

Consider the substance 428 (SLLTEVETPIRNEWGCRCNDSPD; epitope peptide) [compound 428] tested on anti-M2 human monoclonal antibody Z3G1; state its Signal (peptides that bind to Z3G1).
2344

Supply Signal (peptides that bind to Z3G1) measured with anti-M2 human monoclonal antibody Z3G1 for 1389 (SLLCEVETPIRNCWG; epitope peptide) [compound 1389] .
2789

State recorded Signal (peptides that bind to Z3G1) with anti-M2 human monoclonal antibody Z3G1, entry 1270 (MSLDTEVETPIRNEWGCRCN; epitope peptide) [compound 1270] , no comment.
2594

Fill: Signal (peptides that bind to Z3G1) (anti-M2 human monoclonal antibody Z3G1) for this substance 1304 (MSLLTEVITPIRNEWGCRCN; epitope peptide) [compound 1304]
2668

Enter Signal (peptides that bind to Z3G1) (test system anti-M2 human monoclonal antibody Z3G1) for 1280 (MSLLDEVETPIRNEWGCRCN; epitope peptide) [compound 1280]
2763

Supply Signal (peptides that bind to Z3G1) measured with anti-M2 human monoclonal antibody Z3G1 for 294 (MSCLCECGMSLLTEV; epitope peptide) [compound 294] .
1006

Please tell me the measured Signal (peptides that bind to Z3G1) for 1363 (SLLCEVETPICNE; epitope peptide) [compound 1363] ; system: anti-M2 human monoclonal antibody Z3G1.
1921
